Tested on: IgE antibodies from patients
Assay: Wheat epitope mapping (2): overlapping 10-amino-acid peptide fragments shifted by one amino acid
Assay type: binding, human
Settings: serum of patient P3 (WDEIA); sequence without X
METRIC: Epitope sequence binding to IgE antibody, rank of the sequence

# example entries with known answers
SUBSTANCE	SYSTEM_NAME	VALUE_REPORTED
1303 (INVEN; REGION 1..5: note = epitope) [compound 1303]	IgE antibodies from patients	Preferably
1407 (YLQPQQPISQ; REGION 1..10: note = epitope) [compound 1407]	IgE antibodies from patients	Preferably
1170 (FPPQQP; REGION 1..6: note = epitope) [compound 1170]	IgE antibodies from patients	Key
1168 (PGQQQQFPPQ; REGION 1..10: note = epitope) [compound 1168]	IgE antibodies from patients	Preferably

Below: the item to evaluate.
Given item 1304 (NVEN; REGION 1..4: note = epitope) [compound 1304] , the value recorded as its Epitope sequence binding to IgE antibody, rank of the sequence is Key

###

Tested on: IgE antibodies from patients
Test: Wheat epitope mapping (2): overlapping 10-amino-acid peptide fragments shifted by one amino acid
Format: binding, human
Conditions: serum of patient G2 (adult, general immediate type allergy to wheat); partial sequence
METRIC: Epitope sequence binding to IgE antibody, rank of the sequence

SUBSTANCE	VALUE_REPORTED
2621 (LLAS; REGION 1..4: note = epitope) [compound 2621]	Key
2528 (SSQVSF; REGION 1..6: note = epitope) [compound 2528]	Key
2531 (FQPSQLN; REGION 1..7: note = epitope) [compound 2531]	Key

###

System: IgE antibodies from patients
Assay: Wheat epitope mapping (2): overlapping 10-amino-acid peptide fragments shifted by one amino acid
Format: binding, human
Settings: serum of patient P12 (WDEIA); sequence without X
METRIC: Epitope sequence binding to IgE antibody, rank of the sequence

# example entries with known answers
SUBSTANCE	VALUE_REPORTED
1226 (PIQQQP; REGION 1..6: note = epitope) [compound 1226]	Key
1383 (PPQQQ; REGION 1..5: note = epitope) [compound 1383]	Key
1381 (PWQQQPLPPQ; REGION 1..10: note = epitope) [compound 1381]	Preferably
1313 (NVEN; REGION 1..4: note = epitope) [compound 1313]	Key
1225 (QQPIQQQP; REGION 1..8: note = epitope) [compound 1225]	Preferably

Given item 1382 (PWQQQPLPP; REGION 1..9: note = epitope) [compound 1382] , the value recorded as its Epitope sequence binding to IgE antibody, rank of the sequence is Key

Given item 1227 (PQQPPC; REGION 1..6: note = epitope) [compound 1227] , the value recorded as its Epitope sequence binding to IgE antibody, rank of the sequence is Key

Given item 1425 (YLQPQQPIS; REGION 1..9: note = epitope) [compound 1425] , the value recorded as its Epitope sequence binding to IgE antibody, rank of the sequence is Preferably

Given item 1426 (YLQPQ; REGION 1..5: note = epitope) [compound 1426] , the value recorded as its Epitope sequence binding to IgE antibody, rank of the sequence is Key

Given item 1180 (QQFPP; REGION 1..5: note = epitope) [compound 1180] , the value recorded as its Epitope sequence binding to IgE antibody, rank of the sequence is Key

Given item 1179 (QQFPPQQ; REGION 1..7: note = epitope) [compound 1179] , the value recorded as its Epitope sequence binding to IgE antibody, rank of the sequence is Preferably
